Measured on: Platelet-activating factor acetylhydrolase (Homo sapiens, UniProt Q13093)
Sequence (Q13093 whole entry): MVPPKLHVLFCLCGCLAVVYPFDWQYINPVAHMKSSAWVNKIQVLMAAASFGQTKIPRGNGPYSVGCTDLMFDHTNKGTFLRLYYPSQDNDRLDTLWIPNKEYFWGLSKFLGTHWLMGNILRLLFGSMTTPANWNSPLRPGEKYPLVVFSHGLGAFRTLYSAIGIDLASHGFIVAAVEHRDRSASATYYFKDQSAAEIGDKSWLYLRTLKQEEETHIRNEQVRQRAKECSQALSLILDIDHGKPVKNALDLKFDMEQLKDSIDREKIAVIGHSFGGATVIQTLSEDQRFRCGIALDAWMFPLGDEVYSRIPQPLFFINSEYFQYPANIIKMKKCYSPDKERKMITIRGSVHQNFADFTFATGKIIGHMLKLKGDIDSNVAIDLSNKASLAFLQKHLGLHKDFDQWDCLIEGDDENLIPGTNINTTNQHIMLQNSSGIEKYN
Measurement description: Inhibitory activity against recombinant human Lp-PLA2

Line notation	IC50, nM
CCN(CC)CCN(Cc1ccc(-c2ccc(Cl)cc2)cc1)C(=O)Cn1c(SCc2ccc(F)cc2)nc(=O)c2c1CCC2	0.4
CCN(CC)CCN(Cc1ccc(-c2ccc(C(F)(F)F)cc2)cc1)C(=O)Cn1cc(CCNS(C)(=O)=O)c(=O)nc1SCc1ccc(F)cc1	1
CCN(CC)CCN(Cc1ccc(-c2ccc(C(F)(F)F)cc2)cc1)C(=O)Cn1cc(C)c(=O)nc1SCc1ccc(F)cc1	1

* * *

Measurement description: Oral bioavailability in fasted rat
Assay type: ADME, organism-based
Test conditions: in vivo
Quantity name: bioavailability

Line notation	Reported measurement
CCN(CC)CCN(Cc1ccc(-c2ccc(C(F)(F)F)cc2)cc1)C(=O)Cn1c(SCc2ccc(F)cc2)nc(=O)c2c1CCC2	~21%

* * *

Measurement description: Permeability in plasma
Format: ADME, cell-free
Test conditions: not told; read-out: Permeability (converted)

Line notation	Papp [×10⁻⁶ cm/s]
CCN(CC)CCN(Cc1ccc(-c2ccc(C(F)(F)F)cc2)cc1)C(=O)Cn1cc(CCNS(C)(=O)=O)c(=O)nc1SCc1ccc(F)cc1	1.39
CCN(CC)CCN(Cc1ccc(-c2ccc(C(F)(F)F)cc2)cc1)C(=O)Cn1c(C)cc(=O)nc1SCc1ccc(F)cc1	13.9
CCN(CC)CCN(Cc1ccc(-c2ccc(C(F)(F)F)cc2)cc1)C(=O)Cn1c(SCc2ccc(F)cc2)nc(=O)c2c1CCCC2	16.7

* * *

Measured on: Platelet-activating factor acetylhydrolase (Homo sapiens, UniProt Q13093)
Measurement description: Inhibitory activity against recombinant human Lp-PLA2
pIC50: −log10 of the molar value.

Line notation	pIC50
CCN(CC)CCN(Cc1ccc(-c2ccc(C(F)(F)F)cc2)cc1)C(=O)Cn1cc(CCNC(C)=O)c(=O)nc1SCc1ccc(F)cc1	8.22
CCN(CC)CCN(Cc1ccc(-c2ccc(C(F)(F)F)cc2)cc1)C(=O)Cn1cc(CO)c(=O)nc1SCc1ccc(F)cc1	8.82
CCc1cn(CC(=O)N(CCN(CC)CC)Cc2ccc(-c3ccc(C(F)(F)F)cc3)cc2)c(SCc2ccc(F)cc2)nc1=O	9.40
CCN(CC)CCN(Cc1ccc(-c2ccc(C(F)(F)F)cc2)cc1)C(=O)Cn1cc(SC)c(=O)nc1SCc1ccc(F)cc1	9.10

* * *

Measurement description: Oral bioavailability in fed rat
Type: ADME, organism-based
Test conditions: in vivo

Line notation	bioavailability
CCN(CC)CCN(Cc1ccc(-c2ccc(C(F)(F)F)cc2)cc1)C(=O)Cn1c(SCc2ccc(F)cc2)nc(=O)c2c1CCC2	11%
CCN(CC)CCN(Cc1ccc(-c2ccc(C(F)(F)F)cc2)cc1)C(=O)Cn1cc(Cc2cnn(C)c2)c(=O)nc1SCc1ccc(F)cc1	2%

* * *

Below is a list of entries, each paired with its recorded IC50 value.
Measured on: Platelet-activating factor acetylhydrolase (Homo sapiens, UniProt Q13093)
Measurement description: Inhibitory activity against recombinant human Lp-PLA2
Quantity name: IC50 (nM)

Compound	Unit spec	Reported measurement
CCN(CC)CCN(Cc1ccc(-c2ccc(C(F)(F)F)cc2)cc1)C(=O)Cn1cc(Cl)c(=O)nc1SCc1ccc(F)cc1	nM	3
CCN(CC)CCN(Cc1ccc(-c2ccc(Cl)cc2)cc1)C(=O)Cn1c(SCc2ccc(F)cc2)nc(=O)c2c1CCCC2	nM	0.25
CCN(CC)CCN(Cc1ccc(-c2ccc(C(F)(F)F)cc2)cc1)C(=O)Cn1cc(CCN)c(=O)nc1SCc1ccc(F)cc1	nM	38
CCN(CC)CCN(Cc1ccc(-c2ccc(C(F)(F)F)cc2)cc1)C(=O)Cn1cc(Br)c(=O)nc1SCc1ccc(F)cc1	nM	1
CCN(CC)CCN(Cc1ccc(-c2ccc(C(F)(F)F)cc2)cc1)C(=O)Cn1cc([S+](C)[O-])c(=O)nc1SCc1ccc(F)cc1 (configuration not stated)	nM	0.8
CCN(CC)CCN(Cc1ccc(-c2ccc(C(F)(F)F)cc2)cc1)C(=O)Cn1c(SCc2ccc(F)cc2)nc(=O)c2c1CCCC2	nM	0.1
CCCc1cn(CC(=O)N(CCN(CC)CC)Cc2ccc(-c3ccc(C(F)(F)F)cc3)cc2)c(SCc2ccc(F)cc2)nc1=O	nM	0.8

* * *

Measured on: Cytochrome P450 2D6 (Homo sapiens, UniProt P10635)
Sequence (P10635 whole entry): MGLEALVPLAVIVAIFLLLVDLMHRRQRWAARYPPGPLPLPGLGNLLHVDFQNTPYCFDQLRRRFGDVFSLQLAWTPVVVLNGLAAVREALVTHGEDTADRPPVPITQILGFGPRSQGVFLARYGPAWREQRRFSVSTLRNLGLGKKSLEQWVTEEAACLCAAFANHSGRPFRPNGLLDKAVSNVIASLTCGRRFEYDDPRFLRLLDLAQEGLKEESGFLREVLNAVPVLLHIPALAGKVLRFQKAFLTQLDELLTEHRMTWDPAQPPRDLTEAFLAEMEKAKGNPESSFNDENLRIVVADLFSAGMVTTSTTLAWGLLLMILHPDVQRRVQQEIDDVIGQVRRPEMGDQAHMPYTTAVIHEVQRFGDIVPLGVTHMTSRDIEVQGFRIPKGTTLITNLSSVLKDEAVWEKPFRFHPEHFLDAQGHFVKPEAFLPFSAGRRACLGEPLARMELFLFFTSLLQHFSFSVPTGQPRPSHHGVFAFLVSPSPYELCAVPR
Below is a list of entries, each paired with its recorded IC50 value.
Quantity name: IC50 (µM)

Compound	Quantity name	Reported measurement
CCCc1cn(CC(=O)N(CCN(CC)CC)Cc2ccc(-c3ccc(C(F)(F)F)cc3)cc2)c(SCc2ccc(F)cc2)nc1=O	IC50	22
CCN(CC)CCN(Cc1ccc(-c2ccc(C(F)(F)F)cc2)cc1)C(=O)Cn1cc(C)c(=O)nc1SCc1ccc(F)cc1	IC50	39
CCN(CC)CCN(Cc1ccc(-c2ccc(C(F)(F)F)cc2)cc1)C(=O)Cn1cc(Br)c(=O)nc1SCc1ccc(F)cc1	IC50	56
CCN(CC)CCN(Cc1ccc(-c2ccc(Cl)cc2)cc1)C(=O)Cn1cc(C)c(=O)nc1SCc1ccc(F)cc1	IC50	15
CCN(CC)CCN(Cc1ccc(-c2ccc(C(F)(F)F)cc2)cc1)C(=O)Cn1c(SCc2ccc(F)cc2)nc(=O)c2c1CCC2 [DARAPLADIB]	IC50	26

* * *

Measured on: Cytochrome P450 3A4 (Homo sapiens, UniProt P08684)
Sequence (P08684 whole entry): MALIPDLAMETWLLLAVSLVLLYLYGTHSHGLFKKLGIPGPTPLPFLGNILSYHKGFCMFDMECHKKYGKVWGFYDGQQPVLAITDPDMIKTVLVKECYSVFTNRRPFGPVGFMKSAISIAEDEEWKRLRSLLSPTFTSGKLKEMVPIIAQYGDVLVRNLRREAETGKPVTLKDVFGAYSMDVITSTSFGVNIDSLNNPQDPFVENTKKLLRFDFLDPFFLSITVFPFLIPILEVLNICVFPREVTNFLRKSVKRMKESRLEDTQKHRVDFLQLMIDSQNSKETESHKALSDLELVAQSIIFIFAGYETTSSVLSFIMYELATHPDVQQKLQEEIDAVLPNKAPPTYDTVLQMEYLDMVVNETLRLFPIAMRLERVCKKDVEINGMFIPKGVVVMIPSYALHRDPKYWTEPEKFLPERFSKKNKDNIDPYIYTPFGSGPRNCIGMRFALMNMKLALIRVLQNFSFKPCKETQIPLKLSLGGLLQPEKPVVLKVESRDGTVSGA
Measurement description: Inhibitory activity against CYP450 3A4 isozyme
Format: ADME

Line notation	Unit spec	IC50
CCN(CC)CCN(Cc1ccc(-c2ccc(C(F)(F)F)cc2)cc1)C(=O)Cn1c(SCc2ccc(F)cc2)nc(=O)c(C)c1C	µM	22
CCN(CC)CCN(Cc1ccc(-c2ccc(Cl)cc2)cc1)C(=O)Cn1cc(C)c(=O)nc1SCc1ccc(F)cc1	µM	13
CCN(CC)CCN(Cc1ccc(-c2ccc(C(F)(F)F)cc2)cc1)C(=O)Cn1cc(C)c(=O)nc1SCc1ccc(F)cc1	µM	17
CCN(CC)CCN(Cc1ccc(-c2ccc(Cl)cc2)cc1)C(=O)Cn1c(SCc2ccc(F)cc2)nc(=O)c2c1CCCC2	µM	5
CCN(CC)CCN(Cc1ccc(-c2ccc(C(F)(F)F)cc2)cc1)C(=O)Cn1c(SCc2ccc(F)cc2)nc(=O)c2c1CCCC2	µM	10
CCc1cn(CC(=O)N(CCN(CC)CC)Cc2ccc(-c3ccc(C(F)(F)F)cc3)cc2)c(SCc2ccc(F)cc2)nc1=O	µM	11
CCN(CC)CCN(Cc1ccc(-c2ccc(Cl)cc2)cc1)C(=O)Cn1c(SCc2ccc(F)cc2)nc(=O)c2c1CCC2	µM	18
CCc1cn(CC(=O)N(CCN(CC)CC)Cc2ccc(-c3ccc(Cl)cc3)cc2)c(SCc2ccc(F)cc2)nc1=O	µM	7
CCN(CC)CCN(Cc1ccc(-c2ccc(C(F)(F)F)cc2)cc1)C(=O)Cn1cc(SC)c(=O)nc1SCc1ccc(F)cc1	µM	15

* * *

Below is a list of entries, each paired with its recorded Papp value.
Measurement description: Permeability in plasma
Assay type: ADME, cell-free
Test conditions: not told; read-out: Permeability (converted)

Line notation	Unit spec	Papp
CCN(CC)CCN(Cc1ccc(-c2ccc(C(F)(F)F)cc2)cc1)C(=O)Cn1cc(CCNC(C)=O)c(=O)nc1SCc1ccc(F)cc1	×10⁻⁶ cm/s	0.833
CCN(CC)CCN(Cc1ccc(-c2ccc(C(F)(F)F)cc2)cc1)C(=O)Cn1c(SCc2ccc(F)cc2)nc(=O)c(C)c1C	×10⁻⁶ cm/s	8.33
CCN(CC)CCN(Cc1ccc(-c2ccc(C(F)(F)F)cc2)cc1)C(=O)Cn1c(SCc2ccc(F)cc2)nc(=O)c2c1CCC2	×10⁻⁶ cm/s	27.8
CCN(CC)CCN(Cc1ccc(-c2ccc(Cl)cc2)cc1)C(=O)Cn1c(SCc2ccc(F)cc2)nc(=O)c2c1CCC2	×10⁻⁶ cm/s	38.9

* * *

Measurement description: Oral bioavailability in dog
Assay type: ADME, organism-based, Canis lupus familiaris
Test conditions: in vivo
Quantity name: bioavailability

Molecule	Reported measurement
CCN(CC)CCN(Cc1ccc(-c2ccc(C(F)(F)F)cc2)cc1)C(=O)Cn1c(SCc2ccc(F)cc2)nc(=O)c2c1CCC2 [DARAPLADIB]	28%

Data provenance: ChEMBL document CHEMBL1136645
